The values you see were collected from patent EP1534716B1.

- System under test: Cdc7/dbf4 (Homo sapiens)
- Sequence (O00311 whole entry, species assumed): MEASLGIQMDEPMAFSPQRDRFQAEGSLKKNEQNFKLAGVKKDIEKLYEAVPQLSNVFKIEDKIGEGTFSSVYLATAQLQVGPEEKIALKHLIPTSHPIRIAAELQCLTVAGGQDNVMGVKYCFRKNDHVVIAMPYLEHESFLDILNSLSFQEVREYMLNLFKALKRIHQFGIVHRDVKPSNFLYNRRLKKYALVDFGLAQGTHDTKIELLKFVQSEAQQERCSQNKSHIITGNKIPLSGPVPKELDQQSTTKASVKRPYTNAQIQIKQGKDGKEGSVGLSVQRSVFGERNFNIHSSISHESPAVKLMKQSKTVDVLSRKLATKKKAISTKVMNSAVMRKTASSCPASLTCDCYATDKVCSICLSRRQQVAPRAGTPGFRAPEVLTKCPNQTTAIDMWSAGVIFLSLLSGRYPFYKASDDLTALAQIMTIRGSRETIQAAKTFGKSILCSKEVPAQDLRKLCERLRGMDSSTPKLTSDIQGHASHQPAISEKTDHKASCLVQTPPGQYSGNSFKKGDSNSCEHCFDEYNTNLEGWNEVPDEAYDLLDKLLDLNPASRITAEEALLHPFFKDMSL
- Sequence (Q9UBU7 whole entry partner, species assumed): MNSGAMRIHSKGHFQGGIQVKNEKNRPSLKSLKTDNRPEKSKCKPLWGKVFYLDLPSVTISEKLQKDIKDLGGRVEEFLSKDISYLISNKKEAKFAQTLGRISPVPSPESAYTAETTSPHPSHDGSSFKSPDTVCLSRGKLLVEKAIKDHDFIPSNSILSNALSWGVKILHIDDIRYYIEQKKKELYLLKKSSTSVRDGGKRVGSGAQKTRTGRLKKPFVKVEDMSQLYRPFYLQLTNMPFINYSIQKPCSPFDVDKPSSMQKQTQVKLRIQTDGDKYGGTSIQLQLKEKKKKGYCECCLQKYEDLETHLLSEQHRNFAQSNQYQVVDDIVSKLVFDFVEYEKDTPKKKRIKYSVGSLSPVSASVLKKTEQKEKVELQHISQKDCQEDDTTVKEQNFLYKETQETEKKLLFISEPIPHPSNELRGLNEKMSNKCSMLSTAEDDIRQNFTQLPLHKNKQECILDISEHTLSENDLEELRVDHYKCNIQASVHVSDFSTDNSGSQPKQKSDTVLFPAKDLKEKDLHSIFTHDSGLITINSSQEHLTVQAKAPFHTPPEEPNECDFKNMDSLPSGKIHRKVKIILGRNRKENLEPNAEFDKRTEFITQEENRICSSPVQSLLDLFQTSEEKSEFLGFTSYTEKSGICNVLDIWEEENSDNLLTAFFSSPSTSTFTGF
- Protocol details: Inhibition assay of Cdc7/dbf4 activity (SPA)
- Applied conditions: 2 µM ATP, 60 minutes at 37°C
pIC50: −log10 of the molar value. Where a name gives a salt, the structure may show the parent alone.
pIC50 values by entry
Readout: pIC50

> print(dat)
                                   molecule  readout  data.value
1  CN1CCN(c2ccc(C(=O)Nc3n[nH]c4cc(C(=O)NCc5ccccc5F)sc34)cc2)CC1    pIC50      > 6.00
2  CN1CCN(c2ccc(C(=O)Nc3n[nH]c4cc(C(=O)NCc5cccs5)sc34)cc2)CC1    pIC50      > 6.00
3  CN1CCN(c2ccc(C(=O)Nc3n[nH]c4cc(C(=O)O)oc34)cc2)CC1    pIC50      > 6.00
4  COC(=O)c1cc2[nH]nc(NC(=O)c3ccc(N4CCOCC4)cc3)c2s1    pIC50      > 6.00
5  CCNC(=O)c1cc2[nH]nc(NC(=O)c3ccc(N4CCN(C)CC4)cc3)c2s1 [Compound 93, dihydrochloride]    pIC50      > 6.00
6  CN1CCN(c2ccc(C(=O)Nc3n[nH]c4cc(C(=O)NCc5cccn5C)sc34)cc2)CC1    pIC50      > 6.00
7  CN1CCN(c2ccc(C(=O)Nc3n[nH]c4cc(C(=O)NCc5ccco5)sc34)cc2)CC1    pIC50      > 6.00
8  CN1CCN(c2ccc(C(=O)Nc3n[nH]c4cc(C(=O)NCc5ccoc5)sc34)cc2)CC1    pIC50      > 6.00

----------
Structures can show the parent of a compound that is named as a salt.
Measured IC50 on PAK4 (Homo sapiens, UniProt O96013) follows.
Sequence (O96013 whole entry, species assumed): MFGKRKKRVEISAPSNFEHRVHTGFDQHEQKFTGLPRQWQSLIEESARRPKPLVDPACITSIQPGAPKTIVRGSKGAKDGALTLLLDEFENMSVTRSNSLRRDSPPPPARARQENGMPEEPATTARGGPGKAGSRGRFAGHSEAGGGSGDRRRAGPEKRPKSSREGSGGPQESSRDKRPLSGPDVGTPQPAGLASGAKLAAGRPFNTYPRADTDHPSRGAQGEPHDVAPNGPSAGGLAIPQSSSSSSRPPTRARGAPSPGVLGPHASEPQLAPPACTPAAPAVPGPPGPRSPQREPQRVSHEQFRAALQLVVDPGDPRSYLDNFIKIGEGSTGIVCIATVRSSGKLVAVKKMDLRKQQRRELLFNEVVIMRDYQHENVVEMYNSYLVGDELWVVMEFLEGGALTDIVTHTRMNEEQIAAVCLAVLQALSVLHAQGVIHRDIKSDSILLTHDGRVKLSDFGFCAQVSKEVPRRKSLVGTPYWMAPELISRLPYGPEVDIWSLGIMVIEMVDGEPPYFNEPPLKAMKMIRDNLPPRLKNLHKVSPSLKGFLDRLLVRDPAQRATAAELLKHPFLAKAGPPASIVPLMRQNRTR
Readout: IC50

> print(dat)
                                   compound  readout  data.value
1  CN1CCN(c2ccc(C(=O)Nc3n[nH]c4cc(C(=O)NCc5cccc(Cl)c5)sc34)cc2)CC1     IC50    < 500 nM
2  CN1CCN(c2ccc(C(=O)Nc3n[nH]c4cc(C(=O)NCc5ccc(F)cc5)sc34)cc2)CC1     IC50    < 500 nM
3  CCNC(=O)c1cc2[nH]nc(NC(=O)c3ccc(N4CCN(C)CC4)cc3)c2s1 [Compound 93, dihydrochloride]     IC50    < 500 nM
4  CN1CCN(c2ccc(C(=O)Nc3n[nH]c4cc(C(=O)NCc5cccs5)sc34)cc2)CC1     IC50    < 500 nM
5  O=C(Nc1n[nH]c2cc(C(=O)NCc3cccc(F)c3)sc12)c1ccc(N2CCOCC2)cc1     IC50    < 500 nM
6  CN1CCN(c2ccc(C(=O)Nc3n[nH]c4cc(C(=O)NCc5ccco5)sc34)cc2)CC1     IC50    < 500 nM
